Target: Potassium voltage-gated channel subfamily KQT member 2 (Rattus norvegicus)
Assay: KCNQ2 potentiation in CHO cells – cell-based, FluxOR thallium flux, counter-screen for hERG block protector project, confirmation (AID 1942)
Conditions: FluxOR thallium flux fluorescence, at 10 µM
Hit rate of the full screen: of about 2,400 compounds, about 580 (24%) were called active.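 How the source made its calls: active means activity change at or above the mean plus 3 SD of buffer wells without dofetilide, per plate; inactive means the rest.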 A selection follows.
Outcome (select one): active, inactive

Here's what some known entries look like.
Oc1oc(-c2cccc3ccccc23)nc1/C=N/c1nccs1    active
CC1Cc2ccccc2N1C(=S)NC(=O)c1ccc(Cl)cc1Cl (stereo not drawn)    active
O=C1CN(C(=O)COc2ccccc2F)c2ccccc2N1    inactive
O=C(NC(=S)N(CCc1ccccc1)CCc1ccccc1)c1ccco1    active
CC(=O)Nc1ccc(S(=O)(=O)N2CCC(C(=O)O)CC2)cc1    inactive
O=C(Nc1cccc(Br)c1)C1CCCC1    inactive
c1ccc2oc(-c3ccn[nH]3)cc2c1    inactive
C[n+]1ccccc1COc1ccc(C(C)(C)C)cc1    inactive
O=C(O)c1ccccc1NC(=O)C1CCN(S(=O)(=O)c2cccc3nsnc23)CC1    inactive
S=c1nc(C2CCCCC2)n(-c2ccccc2)[nH]1    active

# input Recorded test outcome, item OCCN1CCN(c2ncnc3c2sc2nc(N4CCOCC4)c4c(c23)CCC4)CC1
# output inactive

# input Note, next up: Cc1ccc(Nc2nc(-c3ccncc3)cs2)cc1
# output inactive

# input Note, next up: S=c1[nH]c2ccccc2n2cccc12
# output inactive

# input Note, next up: Cc1ccc(C)c(/C=C/C(=O)c2ccccc(=O)c2O)c1
# output active

# input Note, next up: CC1Cc2ccccc2N1C(=S)NC(=O)C1(C)CC1(Cl)Cl (stereo not drawn)
# output active
